species on record: Rattus norvegicus; assay: Open TG-GATES - Regimen: Daily Repeat; format: toxicity, organism-based, Sprague-Dawley; design: regimen Daily Repeat, gender Male, age 6 weeks; conditions: in vivo, po, 0 mg/kg, […], tissue Blood, route gavage, dose level Control, time 14 day
value kind: Neu (%)
Note: unit % is implicit; provide only the numeric part.

{"molecule": "OCCOCCN1CCN(C(c2ccccc2)c2ccc(Cl)cc2)CC1 (stereo not given) [HYDROXYZINE]", "reported value": 20.2}
{"molecule": "CCc1oc2ccccc2c1C(=O)c1cc(Br)c(O)c(Br)c1 [BENZBROMARONE]", "reported value": 16.8}
{"molecule": "CCC1(c2ccccc2)C(=O)NC(=O)NC1=O [PHENOBARBITAL]", "reported value": 7.8}
{"molecule": "CN(C)C(=N)N=C(N)N [METFORMIN]", "reported value": 17.4}
{"molecule": "CC1=C(CC(=O)O)c2cc(F)ccc2/C1=C\\c1ccc([S+](C)[O-])cc1 (stereo not given)", "reported value": 19.6}

Read the entry CN(C)CCC=C1c2ccccc2COc2ccccc21 [DOXEPIN] and write its reported Neu.
18.4

Provide one value: measured Neu of CC[C@H]1[C@@H]2C[C@H]3[C@@H]4N(C)c5ccccc5[C@]45C[C@@H]([C@@H]2[C@H]5O)N3[C@@H]1O [AJMALINE]
11

Look up and report measured Neu for this entry: CCCCc1oc2ccccc2c1C(=O)c1cc(I)c(OCCN(CC)CC)c(I)c1 [AMIODARONE]
13.8

Please report Neu for the following molecule: O=NN(CCCl)C(=O)NC1CCCCC1 [LOMUSTINE]
11.8

Return reported Neu. Input molecule: ClC(Cl)(Cl)Cl [CARBON TETRACHLORIDE]
15

====

organism: Rattus norvegicus; assay: Open TG-GATES - Regimen: Daily Repeat; format: toxicity, organism-based, Sprague-Dawley; parameters: regimen Daily Repeat, gender Male, age 6 weeks; settings: in vivo, po, 0 mg/kg, 72 h, tissue Plasma, route gavage, dose level Control, time 3 day
Each entry below carries its recorded AST.
All answers are understood in IU/L, so give the number only.

{"molecule": "CN(C)CCC=C1c2ccccc2COc2ccccc21 [DOXEPIN]", "AST [IU/L]": 71.2}

Please list AST recorded for the molecule CC1=C(CC(=O)O)c2cc(F)ccc2/C1=C\c1ccc([S+](C)[O-])cc1 (stereo unspecified)
69.4

Retrieve AST measured for CN(C)C(=N)N=C(N)N and print it.
80.6

Specify measured AST for ClC(Cl)(Cl)Cl [CARBON TETRACHLORIDE] .
71.2

====

species: Rattus norvegicus; assay: Open TG-GATES - Regimen: Daily Repeat; type: toxicity, organism-based, Sprague-Dawley; set-up: regimen Daily Repeat, gender Male, age 6 weeks; settings: in vivo, po, 0 mg/kg, […], tissue Plasma, route gavage, dose level Control, time 14 day
value kind: RALB (g/dL)
Quick note: give the figure in g/dL, leave out the unit.

Known results for compounds:
{"compound": "OCCOCCN1CCN(C(c2ccccc2)c2ccc(Cl)cc2)CC1 (stereo unspecified) [HYDROXYZINE]", "RALB [g/dL]": 2.7}
{"compound": "CC[C@H]1[C@@H]2C[C@H]3[C@@H]4N(C)c5ccccc5[C@]45C[C@@H]([C@@H]2[C@H]5O)N3[C@@H]1O", "RALB [g/dL]": 3.8}
{"compound": "CN(C)CCC=C1c2ccccc2COc2ccccc21 [DOXEPIN]", "RALB [g/dL]": 2.7}
{"compound": "CCCCc1oc2ccccc2c1C(=O)c1cc(I)c(OCCN(CC)CC)c(I)c1", "RALB [g/dL]": 3.5}
{"compound": "CC1=C(CC(=O)O)c2cc(F)ccc2/C1=C\\c1ccc([S+](C)[O-])cc1 (stereo unspecified)", "RALB [g/dL]": 2.8}
{"compound": "CC(C)N(CCC(C(N)=O)(c1ccccc1)c1ccccn1)C(C)C (stereo unspecified) [DISOPYRAMIDE]", "RALB [g/dL]": 3}

Give a short answer stating reported RALB for CCC1(c2ccccc2)C(=O)NC(=O)NC1=O .
3.8

Complete the entry with RALB for O=NN(CCCl)C(=O)NC1CCCCC1
4

Please give the documented RALB of CN(C)C(=N)N=C(N)N
2.7

Item ClC(Cl)(Cl)Cl [CARBON TETRACHLORIDE] : provide RALB
3.5

Find the measured RALB of CCc1oc2ccccc2c1C(=O)c1cc(Br)c(O)c(Br)c1 and report it.
3.9

====

organism: Rattus norvegicus; experiment: Open TG-GATES - Regimen: Single; assay type: toxicity, organism-based, Sprague-Dawley; design: regimen Single, gender Male, age 6 weeks; conditions: in vivo, po, 0 mg/kg, 24 h, tissue Kidney, route gavage, dose level Control
KIDNEY_L values, listed per item
API: value field is a number in g; no unit string.

// known answers, use as guide
{"compound": "CC[C@H]1[C@@H]2C[C@H]3[C@@H]4N(C)c5ccccc5[C@]45C[C@@H]([C@@H]2[C@H]5O)N3[C@@H]1O", "reported value": 0.9}
{"compound": "O=NN(CCCl)C(=O)NC1CCCCC1", "reported value": 1}
{"compound": "CN(C)C(=N)N=C(N)N", "reported value": 0.9}
{"compound": "OCCOCCN1CCN(C(c2ccccc2)c2ccc(Cl)cc2)CC1 (stereo unspecified) [HYDROXYZINE]", "reported value": 0.9}
{"compound": "CCC1(c2ccccc2)C(=O)NC(=O)NC1=O", "reported value": 1.1}
{"compound": "ClC(Cl)(Cl)Cl [CARBON TETRACHLORIDE]", "reported value": 0.9}
{"compound": "CC(C)N(CCC(C(N)=O)(c1ccccc1)c1ccccn1)C(C)C (stereo unspecified) [DISOPYRAMIDE]", "reported value": 1}
{"compound": "CCc1oc2ccccc2c1C(=O)c1cc(Br)c(O)c(Br)c1", "reported value": 1}

Return KIDNEY_L (reported value) for this compound: CN(C)CCC=C1c2ccccc2COc2ccccc21 [DOXEPIN]
1

Report KIDNEY_L, nothing else, for this compound: CC1=C(CC(=O)O)c2cc(F)ccc2/C1=C\c1ccc([S+](C)[O-])cc1 (stereo unspecified)
0.9

Annotate the compound O=NN1CCOCC1 with its measured KIDNEY_L.
1

====

species on record: Rattus norvegicus; assay: Open TG-GATES - Regimen: Single; type: toxicity, organism-based, Sprague-Dawley; set-up: regimen Single, gender Male, age 6 weeks; settings: in vivo, po, 100 mg/kg, 24 h, tissue Blood, route gavage, dose level Low
value kind: Eos

{"molecule": "CN(C)C(=N)N=C(N)N", "Eos": "1%"}
{"molecule": "CCC1(c2ccccc2)C(=O)NC(=O)NC1=O", "Eos": "1%"}
{"molecule": "O=NN1CCOCC1", "Eos": "0.4%"}

Here is the next item to consider.
Consider the molecule CN(C)CCC=C1c2ccccc2COc2ccccc21 [DOXEPIN] . State its measured Eos.
0.8%

====

As shown below, each of these compounds has a reported Cl value.
organism: Rattus norvegicus; assay: Open TG-GATES - Regimen: Single; assay type: toxicity, organism-based, Sprague-Dawley; set-up: regimen Single, gender Male, age 6 weeks; settings: in vivo, po, 0 mg/kg, 9 h, tissue Plasma, route gavage, dose level Control
Provide the reading as a plain figure in meq/L.

Examples from the recorded data:
{"compound": "CC(C)N(CCC(C(N)=O)(c1ccccc1)c1ccccn1)C(C)C (centres undefined) [DISOPYRAMIDE]", "units label": "meq/L", "reported value": 106.6}
{"compound": "CCc1oc2ccccc2c1C(=O)c1cc(Br)c(O)c(Br)c1 [BENZBROMARONE]", "units label": "meq/L", "reported value": 105.2}
{"compound": "O=NN(CCCl)C(=O)NC1CCCCC1 [LOMUSTINE]", "units label": "meq/L", "reported value": 105.6}
{"compound": "CC1=C(CC(=O)O)c2cc(F)ccc2/C1=C\\c1ccc([S+](C)[O-])cc1 (centres undefined)", "units label": "meq/L", "reported value": 107.8}
{"compound": "CN(C)C(=N)N=C(N)N [METFORMIN]", "units label": "meq/L", "reported value": 105}
{"compound": "CCC1(c2ccccc2)C(=O)NC(=O)NC1=O [PHENOBARBITAL]", "units label": "meq/L", "reported value": 103.8}
{"compound": "CC[C@H]1[C@@H]2C[C@H]3[C@@H]4N(C)c5ccccc5[C@]45C[C@@H]([C@@H]2[C@H]5O)N3[C@@H]1O [AJMALINE]", "units label": "meq/L", "reported value": 104.6}
{"compound": "ClC(Cl)(Cl)Cl [CARBON TETRACHLORIDE]", "units label": "meq/L", "reported value": 102.4}

Tell me measured Cl for OCCOCCN1CCN(C(c2ccccc2)c2ccc(Cl)cc2)CC1 (centres undefined) [HYDROXYZINE] please.
105.4

Data provenance: ChEMBL document CHEMBL3885861
